Where these numbers come from: the supplement of paper PMC9170038

- System: K4 kissing-loop RNA reporter;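 further: bound reporter read as fluorescence of individual clusters on recovered sequencing chips by microscopy, with normalized cluster intensities fitted with a binding model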
- Assay Notes: apparent KD of K4 kissing-loop reporter; higher = weaker reporter binding
- Condition Context: Eterna round: R107; input ligand: arginine 13.2 mM
Rule: YES for apparent KD of K4 kissing-loop reporter not less than 300 nM, NO for anything less.

Chain Sequence	Assigned Label
AGCUCAGAGUGACUCGAUAAGAGUCACAAACGAGGACCGGUACGGCCGCCACUCGAAAUAAGGAGAGUGAUGUUCUCGCUGAGCA [FiskerMod 8 - Jieux - Same State Tryptophan A]	NO
AACCACUCGUUACAUCACUAUCGAGUGGAACGAGGACCGGUACGGCCGCCACUCGAUAACUUGCAGUGAUGUUGCAAGUAAGAAU [(T)''-(K)'-(T)'-(T1)-(T2)-(K1)-(K2)_Design9]	YES
UUUGGUUUCUCGGCCGCCACUCGUUGUCUAUCGGCUUCAGGGAUAUAGUGAUGUUAUGUAUAGAAGAGGACCGGGAGAAGGUUUU [ExTryptoB.Dw]	YES
CUGACGCUGAUACGGUGGCCGAUGGUCGUGCGAGGACCGGUACGGCCGCCACUCGCAUGAGUGAUGUUCAUGUGUCGUCGUCGUC [#06 K4 Tryptophan A Exclusion]	NO

Could you now look at the following sequence, please?
Reported apparent KD of K4 kissing-loop reporter reaches at least 300 nM for AAGACUUGCAUCGAUACCAGCCCAGUGAUGUUGGGCUGCUCUCCAUGGGUGCCAGACACGGGCCCUUGGCAGCGAGGUAAGGCCC [Soveri] ?
NO

====

- Test system: MS2 coat protein
- Assay Notes: apparent KD of MS2 coat protein; designed switch direction (-1 OFF switch, 1 ON switch): -1; higher = weaker reporter binding
- Condition Context: input ligand: FMN 200 uM
As shown below, each of these sequences has a reported apparent KD of MS2 coat protein value.
Note: unit nM is implicit; provide only the numeric part.

Example entries and their recorded answers appear below.
Chain Sequence	apparent KD of MS2 coat protein / nM
GUCACAUGGACAUAGGAUCACAUGAGGAUCACCCAUGUGACUAACAAGCUUUUUGUUCGUCUUAUGUCUAUGUGAAG [Stov1/16-B3] (Eterna round: R97, puzzle: Sensor, turn-off variant 1)	13.1
GCAGCAACUCUCACUAACUAAACAUGAGGAUCACCCAUGUCUCAGGAUAUGGUCUGGAUUACAGGCCAGAAGGGAGAAAGCUGC [Eli exng3 - 040] (Eterna round: R96, puzzle: Exclusion NG 3)	9.73
AAUUAGCAAGCGAGAUCUCACAUGAGGAUCACCCAUGUGCUCGUCUUAUAAGGUACUGUGACGAAAGUCACGGUACC [Mat - Sensor, turn-off var - Eli Mod - D40] (Eterna round: R97, puzzle: Sensor, turn-off variant 1)	14.8

// fetch MS2 coat protein apparent KD of MS2 coat protein for CCGGCGUCAGGAUAUCGUAGCAGGACAUUCAGUCGCGGCUAUGAGAAGGGACAUGAGGAUCACCCAUGUCCUCA [Eternabot (Original) Solution 22] (Eterna round: R97, puzzle: Exclusion 4)
29.5

====

- Test system: MS2 coat protein
- Assay Notes: apparent KD of MS2 coat protein, switch OFF state (with FMN for OFF switches, without FMN for ON switches); designed switch direction (-1 OFF switch, 1 ON switch): -1; higher = weaker reporter binding
- Condition Context: FMN input: 0 or 200 uM; Eterna round: R93 (includes R88 designs)
Measurement Label: apparent KD of MS2 coat protein (nM)
Write the number in nM without appending the unit.

Past entries and their recorded results:
Chain Sequence	Unit Abbreviation	Observed
AGAAAGUCAGGAUAUACGAAAAAGAAAAAAGACGAGAACGGACAUGAGGAUCACCCAUGUAGAAGGGACAAGAA [Diamond 14]	nM	51.4
AAAAAGAGAGGAUAUACAUGAGGAUCACCCAUGUAACAUUAAAUAAAUAAAAUAAAGUGUAGAAGGCUCAAAAA [65%, Moding Exclusion3-cac2, 24]	nM	34.3

Turning now to a further sequence:
Recorded apparent KD of MS2 coat protein for AAGAAGGUAGGAUAUACUAAAGAAACUAAUGCAAAGAUAAAACAUGAGGAUCACCCAUGUAGAAGGGCCAGAAA [JR_Exc002_Sub016] with MS2 coat protein, please?
25.1
